All figures here come from ChEMBL document CHEMBL5724914.

- Experimental Protocol: The drug is tested on WLS-039 corresponding to human gut metagenome with ENA study accession number: PRJEB37062 and ENA sample accession number: ERS12561746 for biotransformation under anaerobic condition. The drug concentrations were measured over 9 timepoints collected between 0 and 24 hours of incubation by liquid-chromatography-coupled mass spectrometry (LC–MS); further: call rule not given here
- Cond: 2 µM

{"Compound": "CCCN(CCC)CCc1cccc2c1CC(=O)N2", "Bacterial Biotransformation": "Compound NOT metabolized"}
{"Compound": "CN1CCC[C@@H]1CCO[C@](C)(c1ccccc1)c1ccc(Cl)cc1.O=C(O)/C=C/C(=O)O [CLEMASTINE FUMARATE]", "Bacterial Biotransformation": "Compound metabolized"}
{"Compound": "Cc1cc(C)cc(OCC2CNC(=O)O2)c1 (stereo unspecified)", "Bacterial Biotransformation": "Compound metabolized"}
{"Compound": "CCOc1ccccc1OCCN[C@H](C)Cc1ccc(OC)c(S(N)(=O)=O)c1.Cl [TAMSULOSIN HYDROCHLORIDE]", "Bacterial Biotransformation": "Compound NOT metabolized"}
{"Compound": "CCc1oc2ccccc2c1C(=O)c1cc(Br)c(O)c(Br)c1", "Bacterial Biotransformation": "Compound metabolized"}
{"Compound": "Nc1nnc(-c2cccc(Cl)c2Cl)c(N)n1", "Bacterial Biotransformation": "Compound NOT metabolized"}
{"Compound": "CCN(CC)CCNC(=O)c1ccc(NC(C)=O)cc1 [ACECAINIDE]", "Bacterial Biotransformation": "Compound NOT metabolized"}
{"Compound": "N[C@@H](Cc1ccc(N(CCCl)CCCl)cc1)C(=O)O", "Bacterial Biotransformation": "Compound metabolized"}
{"Compound": "CCc1cccc2c3c([nH]c12)C(CC)(CC(=O)O)OCC3 (stereo unspecified)", "Bacterial Biotransformation": "Compound metabolized"}
{"Compound": "COc1cc(NC(C)CCCN)c2ncccc2c1.O=P(O)(O)O.O=P(O)(O)O (stereo unspecified) [PRIMAQUINE PHOSPHATE]", "Bacterial Biotransformation": "Compound metabolized"}
{"Compound": "CN1CCN(C2=Nc3ccccc3Oc3ccc(Cl)cc32)CC1.O=C(O)CCC(=O)O [LOXAPINE SUCCINATE]", "Bacterial Biotransformation": "Compound NOT metabolized"}
{"Compound": "CC(C)c1nc(N(C)S(C)(=O)=O)nc(-c2ccc(F)cc2)c1/C=C/[C@@H](O)C[C@@H](O)CC(=O)[O-].CC(C)c1nc(N(C)S(C)(=O)=O)nc(-c2ccc(F)cc2)c1/C=C/[C@@H](O)C[C@@H](O)CC(=O)[O-].[Ca+2]", "Bacterial Biotransformation": "Compound metabolized"}
{"Compound": "C#C[C@]1(OC(C)=O)CC[C@H]2[C@@H]3CCC4=CC(=O)CC[C@@H]4[C@H]3CC[C@@]21C [NORETHINDRONE ACETATE]", "Bacterial Biotransformation": "Compound metabolized"}
{"Compound": "CC(NC(C)(C)C)C(=O)c1cccc(Cl)c1 (stereo unspecified)", "Bacterial Biotransformation": "Compound NOT metabolized"}
{"Compound": "CCCCC(=O)O[C@]1(C(=O)CO)[C@@H](C)C[C@H]2[C@@H]3CCC4=CC(=O)C=C[C@]4(C)[C@@]3(F)[C@@H](O)C[C@@]21C [BETAMETHASONE VALERATE]", "Bacterial Biotransformation": "Compound metabolized"}
{"Compound": "N=C(N)NC(=O)Cc1c(Cl)cccc1Cl", "Bacterial Biotransformation": "Compound NOT metabolized"}
{"Compound": "CC(N)C12CC3CC(CC(C3)C1)C2 (stereo unspecified)", "Bacterial Biotransformation": "Compound NOT metabolized"}
{"Compound": "CCN(C(C)=O)c1cccc(-c2ccnc3c(C#N)cnn23)c1", "Bacterial Biotransformation": "Compound metabolized"}
{"Compound": "CCCN1C[C@H](CSC)C[C@@H]2c3cccc4[nH]cc(c34)C[C@H]21.CS(=O)(=O)O [PERGOLIDE MESYLATE]", "Bacterial Biotransformation": "Compound NOT metabolized"}
{"Compound": "CC(C)c1c(CN(C)C(C)Cc2ccccc2)n(C)n(-c2ccccc2)c1=O (stereo unspecified)", "Bacterial Biotransformation": "Compound metabolized"}
{"Compound": "CN1CCC(=C2c3ccccc3CC(=O)c3sccc32)CC1.O=C(O)/C=C/C(=O)O [KETOTIFEN FUMARATE]", "Bacterial Biotransformation": "Compound NOT metabolized"}
{"Compound": "C#C[C@]1(OC(C)=O)CC[C@H]2[C@@H]3CCC4=C/C(=N/O)CC[C@@H]4[C@H]3CC[C@@]21CC [NORGESTIMATE]", "Bacterial Biotransformation": "Compound metabolized"}
{"Compound": "CC[C@@]1(O)C(=O)OCc2c1cc1n(c2=O)Cc2cc3c(CN(C)C)c(O)ccc3nc2-1", "Bacterial Biotransformation": "Compound NOT metabolized"}
{"Compound": "CC(=O)O[C@]1(C(C)=O)CC[C@H]2[C@@H]3C=C(C)C4=CC(=O)CC[C@]4(C)[C@H]3CC[C@@]21C [MEGESTROL ACETATE]", "Bacterial Biotransformation": "Compound metabolized"}
{"Compound": "COCCCC/C(=N\\OCCN)c1ccc(C(F)(F)F)cc1.O=C(O)/C=C\\C(=O)O [FLUVOXAMINE MALEATE]", "Bacterial Biotransformation": "Compound NOT metabolized"}
{"Compound": "Clc1cccc(Cl)c1N=C1NCCN1", "Bacterial Biotransformation": "Compound NOT metabolized"}
{"Compound": "C[C@@H](c1ncncc1F)[C@](O)(Cn1cncn1)c1ccc(F)cc1F", "Bacterial Biotransformation": "Compound metabolized"}
{"Compound": "CC#C[C@]1(O)CC[C@H]2[C@@H]3CCC4=CC(=O)CCC4=C3[C@@H](c3ccc(N(C)C)cc3)C[C@@]21C", "Bacterial Biotransformation": "Compound NOT metabolized"}
{"Compound": "C=CC[C@@H]1/C=C(\\C)C[C@H](C)C[C@H](OC)[C@H]2O[C@@](O)(C(=O)C(=O)N3CCCC[C@H]3C(=O)O[C@H](/C(C)=C/[C@@H]3CC[C@@H](O)[C@H](OC)C3)[C@H](C)[C@@H](O)CC1=O)[C@H](C)C[C@@H]2OC.O", "Bacterial Biotransformation": "Compound metabolized"}
{"Compound": "C#C[C@]1(OC(C)=O)CC[C@H]2[C@@H]3CCC4=C[C@@H](OC(C)=O)CC[C@@H]4[C@H]3CC[C@@]21C [ETHYNODIOL DIACETATE]", "Bacterial Biotransformation": "Compound metabolized"}
{"Compound": "CC(=O)OCC(=O)NCCCOc1cccc(CN2CCCCC2)c1 [ROXATIDINE ACETATE]", "Bacterial Biotransformation": "Compound metabolized"}
